Multiple publications report pKi for Prothrombin (Homo sapiens); what follows is a combined list.
Keep it numeric: pKi is minus log10 of the concentration in mol/L.

Enquiry: Using the record for Cc1[nH]cnc1CNC(=O)[C@@H]1CCCN1C(=O)[C@H](N)C(c1ccccc1)c1ccccc1 , report its pKi.
Return: 7.19

Enquiry: Returns the measured pKi for the input compound. Input: Cc1cc(OCC(O)CON=C(N)N)cc(OS(=O)(=O)c2ccccc2S(C)(=O)=O)c1 (centres undefined)
Return: 6.86

Enquiry: Returns the measured pKi for the input compound. Input: Cc1cc(OCC2CC[N+](=C([NH-])N)CC2)cc(OS(=O)(=O)c2ccccc2[N+](=O)[O-])c1 (centres undefined)
Return: 7.80

More entries:
Enquiry: If you can, please state the reported pKi value of Cc1cc(OCCCONC(=N)N)cc(C(=O)N(Cc2ccsc2)CC2CC2)c1 .
Return: 7.51

Enquiry: Bench note: what pKi did N=C(N)NS(=O)(=O)c1ccc([N+](=O)[O-])cc1 show?
Return: 6.74

Enquiry: Reported pKi, compound CC1(C)[C@@H]2C[C@H]3OB([C@H](CCCCN)NC(=O)[C@@H]4CCCN4C(=O)c4ccccc4Oc4ccccc4)O[C@@]3(C)[C@H]1C2 : ____
Return: 9.57

Enquiry: What does the record list as pKi for CN(CCO)Cc1csc(C(=O)Nc2ccc(Cl)cc2C(=O)Nc2ccc(Cl)cc2)c1Cl ?
Return: 6.08

Enquiry: Requested read-out: pKi. Entry: Cc1ccc(CS(=O)(=O)Nc2ccc(C)n(CC(=O)NC3CCc4nc(N)sc4C3)c2=O)cc1 (centres undefined)
Return: 7.00

Enquiry: May I ask what pKi has been recorded for COC(=N)NS(=O)(=O)c1cccc2c(N(C)C)cccc12 ?
Return: 6.86

Enquiry: Item under review: N=C(N)NOCCCOc1cc(Cl)cc(C(=O)N(CCC(=O)O)CC2CC2)c1 . Reported pKi?
Return: 6.67

Enquiry: Value lookup for pKi; key = NC(N)=NCCCC(NC(=O)[C@@H]1CC[C@H]2CN(C(=O)[C@@H](N)Cc3ccc(F)cc3)CC(=O)N21)C(=O)c1nccs1 (some centres undefined)
Return: 8.52

Enquiry: Could you tell me which pKi is on file for COc1ccccc1S(=O)(=O)Oc1cc(C)cc(OCC/C=N/N=C(N)N)c1 ?
Return: 7.96
